assaySystem: PLK1 (Homo sapiens, UniProt P53350)
Sequence (P53350 whole entry): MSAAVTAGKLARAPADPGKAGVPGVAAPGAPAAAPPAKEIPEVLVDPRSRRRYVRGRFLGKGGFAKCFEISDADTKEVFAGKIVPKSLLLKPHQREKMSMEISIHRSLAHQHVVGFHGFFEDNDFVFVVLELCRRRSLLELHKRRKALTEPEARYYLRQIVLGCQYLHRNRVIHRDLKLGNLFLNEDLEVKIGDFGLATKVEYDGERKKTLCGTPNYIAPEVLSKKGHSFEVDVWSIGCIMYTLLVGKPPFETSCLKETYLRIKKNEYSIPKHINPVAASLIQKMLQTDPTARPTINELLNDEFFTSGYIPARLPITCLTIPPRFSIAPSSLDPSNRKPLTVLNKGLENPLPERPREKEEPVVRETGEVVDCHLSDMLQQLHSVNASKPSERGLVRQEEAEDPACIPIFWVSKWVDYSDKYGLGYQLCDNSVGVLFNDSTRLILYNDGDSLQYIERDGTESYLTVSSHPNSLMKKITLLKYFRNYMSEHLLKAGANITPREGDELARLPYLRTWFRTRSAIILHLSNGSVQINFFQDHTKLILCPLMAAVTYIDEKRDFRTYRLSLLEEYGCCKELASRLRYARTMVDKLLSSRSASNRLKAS
assayMethodText: PLK1 kinase assay as described in WO 2015/155042
Format: biochemical
studyConditions: when measured as described in WO 2015/155042
endpointName: IC50 (µM)
One number for each entry, in µM.

# IC50 lookup, item COc1cc(N2CCNCC2)ccc1Nc1ncc2c(n1)-n1ccc(C(=O)Nc3c(C)cccc3C)c1CC2
0.046

----------
assaySystem: TTK (Homo sapiens)
Construct: TTK and PLK1 protein kinases were expressed as recombinant full-length GST-fusion proteins; GST
Sequence (P33981 whole entry, the tested form may be a part): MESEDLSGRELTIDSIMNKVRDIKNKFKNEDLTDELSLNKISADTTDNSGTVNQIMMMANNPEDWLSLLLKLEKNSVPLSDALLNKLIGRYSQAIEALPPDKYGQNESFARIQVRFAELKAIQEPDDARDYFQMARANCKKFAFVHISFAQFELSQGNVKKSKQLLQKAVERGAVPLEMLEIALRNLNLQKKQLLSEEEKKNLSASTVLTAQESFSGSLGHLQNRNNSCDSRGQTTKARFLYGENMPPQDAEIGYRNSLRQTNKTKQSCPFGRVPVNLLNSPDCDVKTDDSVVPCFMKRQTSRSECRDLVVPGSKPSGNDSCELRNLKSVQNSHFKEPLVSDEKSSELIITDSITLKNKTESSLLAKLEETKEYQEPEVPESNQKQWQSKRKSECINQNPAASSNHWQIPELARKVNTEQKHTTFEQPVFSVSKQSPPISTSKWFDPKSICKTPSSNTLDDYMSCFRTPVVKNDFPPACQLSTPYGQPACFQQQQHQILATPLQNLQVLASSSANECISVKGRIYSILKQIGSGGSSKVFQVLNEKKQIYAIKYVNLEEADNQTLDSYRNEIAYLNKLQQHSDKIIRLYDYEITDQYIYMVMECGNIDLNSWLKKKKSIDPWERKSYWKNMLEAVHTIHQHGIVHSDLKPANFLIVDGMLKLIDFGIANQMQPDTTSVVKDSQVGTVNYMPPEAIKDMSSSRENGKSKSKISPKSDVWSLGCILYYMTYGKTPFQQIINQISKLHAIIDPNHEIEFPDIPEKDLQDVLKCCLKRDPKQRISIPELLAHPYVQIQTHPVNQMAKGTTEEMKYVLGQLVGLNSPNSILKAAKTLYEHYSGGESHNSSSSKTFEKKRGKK
assayMethodText: TTK kinase assay as described in WO 2015/155042
Format: biochemical
studyConditions: when measured as described in WO 2015/155042
endpointName: IC50

Which measured IC50 value corresponds to COc1cc(N2CCNCC2)ccc1Nc1ncc2c(n1)-n1ccc(C(=O)Nc3c(C)cccc3C)c1CC2 [Compound of formula (I)] ?
0.4 nM
